Ref: ChEMBL document CHEMBL1817564

System: Nucleic Acid
Test: Binding affinity to HIV1 TAR RNA assessed as melting temperature at HIV1 TAR RNA to compound ratio of 1 at pH 6.8 by UV thermal denaturation assay
Assay type: nucleic-acid assay
Conditions: Human immunodeficiency virus 1

smiles input	Tm / °C
NC[C@@H]1O[C@H](O[C@H]2[C@@H](O)[C@H](O[C@@H]3[C@@H](O)[C@H](N)C[C@H](N)[C@H]3O[C@H]3O[C@H](CN)[C@@H](O)[C@H](O)[C@H]3N)O[C@@H]2Cn2cc(COCCCCCCCCOCc3cn(C[C@H]4O[C@@H](O[C@@H]5[C@@H](O)[C@H](N)C[C@H](N)[C@H]5O[C@H]5O[C@H](CN)[C@@H](O)[C@H](O)[C@H]5N)[C@H](O)[C@@H]4O[C@H]4O[C@@H](CN)[C@@H](O)[C@H](O)[C@H]4N)nn3)nn2)[C@H](N)[C@@H](O)[C@@H]1O	74.3

* * *

Test system: Nucleic Acid
Assay: Binding affinity to HIV1 TAR RNA assessed as melting temperature at HIV1 TAR RNA to compound ratio of 1 at pH 6.8 by UV thermal denaturation assay
Type: nucleic-acid assay
Settings: Human immunodeficiency virus 1
measured attribute: Tm (°C)

smiles input	measured attribute	readout units	quantitative readout
C/C(CCc1cn(C[C@H]2O[C@@H](O[C@@H]3[C@@H](O)[C@H](N)C[C@H](N)[C@H]3O[C@H]3O[C@H](CN)[C@@H](O)[C@H](O)[C@H]3N)[C@H](O)[C@@H]2O[C@H]2O[C@@H](CN)[C@@H](O)[C@H](O)[C@H]2N)nn1)=C(/C)CCc1cn(C[C@H]2O[C@@H](O[C@@H]3[C@@H](O)[C@H](N)C[C@H](N)[C@H]3O[C@H]3O[C@H](CN)[C@@H](O)[C@H](O)[C@H]3N)[C@H](O)[C@@H]2O[C@H]2O[C@@H](CN)[C@@H](O)[C@H](O)[C@H]2N)nn1	Tm	°C	76.4
NC[C@@H]1O[C@H](O[C@H]2[C@@H](O)[C@H](O[C@@H]3[C@@H](O)[C@H](N)C[C@H](N)[C@H]3O[C@H]3O[C@H](CN)[C@@H](O)[C@H](O)[C@H]3N)O[C@@H]2Cn2cc(Cc3ccc(Cc4cn(C[C@H]5O[C@@H](O[C@@H]6[C@@H](O)[C@H](N)C[C@H](N)[C@H]6O[C@H]6O[C@H](CN)[C@@H](O)[C@H](O)[C@H]6N)[C@H](O)[C@@H]5O[C@H]5O[C@@H](CN)[C@@H](O)[C@H](O)[C@H]5N)nn4)cc3)nn2)[C@H](N)[C@@H](O)[C@@H]1O	Tm	°C	78.5
NC[C@@H]1O[C@H](O[C@H]2[C@@H](O)[C@H](O[C@@H]3[C@@H](O)[C@H](N)C[C@H](N)[C@H]3O[C@H]3O[C@H](CN)[C@@H](O)[C@H](O)[C@H]3N)O[C@@H]2Cn2cc(COCc3cn(C[C@H]4O[C@@H](O[C@@H]5[C@@H](O)[C@H](N)C[C@H](N)[C@H]5O[C@H]5O[C@H](CN)[C@@H](O)[C@H](O)[C@H]5N)[C@H](O)[C@@H]4O[C@H]4O[C@@H](CN)[C@@H](O)[C@H](O)[C@H]4N)nn3)nn2)[C@H](N)[C@@H](O)[C@@H]1O	Tm	°C	79.1
NC[C@@H]1O[C@H](O[C@H]2[C@@H](O)[C@H](O[C@@H]3[C@@H](O)[C@H](N)C[C@H](N)[C@H]3O[C@H]3O[C@H](CN)[C@@H](O)[C@H](O)[C@H]3N)O[C@@H]2Cn2cc(CCCCc3cn(C[C@H]4O[C@@H](O[C@@H]5[C@@H](O)[C@H](N)C[C@H](N)[C@H]5O[C@H]5O[C@H](CN)[C@@H](O)[C@H](O)[C@H]5N)[C@H](O)[C@@H]4O[C@H]4O[C@@H](CN)[C@@H](O)[C@H](O)[C@H]4N)nn3)nn2)[C@H](N)[C@@H](O)[C@@H]1O	Tm	°C	77.1

* * *

Tested on: Nucleic Acid
Experiment: Binding affinity to HIV1 TAR RNA assessed as melting temperature at HIV1 TAR RNA to compound ratio of 1 at pH 6.8 by UV thermal denaturation assay
Format: nucleic-acid assay
Details: Human immunodeficiency virus 1
Let's look at some compounds and their measured Tm.

smiles input	measurement target	Tm, °C
NC[C@@H]1O[C@H](O[C@H]2[C@@H](O)[C@H](O[C@@H]3[C@@H](O)[C@H](N)C[C@H](N)[C@H]3O[C@H]3O[C@H](CN)[C@@H](O)[C@H](O)[C@H]3N)O[C@@H]2Cn2cc(COCCCCCCCCCCCCOCc3cn(C[C@H]4O[C@@H](O[C@@H]5[C@@H](O)[C@H](N)C[C@H](N)[C@H]5O[C@H]5O[C@H](CN)[C@@H](O)[C@H](O)[C@H]5N)[C@H](O)[C@@H]4O[C@H]4O[C@@H](CN)[C@@H](O)[C@H](O)[C@H]4N)nn3)nn2)[C@H](N)[C@@H](O)[C@@H]1O	Nucleic Acid	72.1
NC[C@@H]1O[C@H](O[C@H]2[C@@H](O)[C@H](O[C@@H]3[C@@H](O)[C@H](N)C[C@H](N)[C@H]3O[C@H]3O[C@H](CN)[C@@H](O)[C@H](O)[C@H]3N)O[C@@H]2Cn2cc(Cc3cccc(Cc4cn(C[C@H]5O[C@@H](O[C@@H]6[C@@H](O)[C@H](N)C[C@H](N)[C@H]6O[C@H]6O[C@H](CN)[C@@H](O)[C@H](O)[C@H]6N)[C@H](O)[C@@H]5O[C@H]5O[C@@H](CN)[C@@H](O)[C@H](O)[C@H]5N)nn4)c3)nn2)[C@H](N)[C@@H](O)[C@@H]1O	Nucleic Acid	78.2
NC[C@@H]1O[C@H](O[C@H]2[C@@H](O)[C@H](O[C@@H]3[C@@H](O)[C@H](N)C[C@H](N)[C@H]3O[C@H]3O[C@H](CN)[C@@H](O)[C@H](O)[C@H]3N)O[C@@H]2CO)[C@H](N)[C@@H](O)[C@@H]1O	Nucleic Acid	69.1

* * *

System: Nucleic Acid
Assay: Binding affinity to HIV1 TAR RNA assessed as change in melting temperature at HIV1 TAR RNA to compound ratio of 1 at pH 6.8 by UV thermal denaturation assay
Assay type: nucleic-acid assay
Conditions: Human immunodeficiency virus 1
Lab note: compare ΔTm against 8 °C. Equal or greater, write MET. Smaller, write NOT MET.

smiles input	measurement target	class
NC[C@@H]1O[C@H](O[C@H]2[C@@H](O)[C@H](O[C@@H]3[C@@H](O)[C@H](N)C[C@H](N)[C@H]3O[C@H]3O[C@H](CN)[C@@H](O)[C@H](O)[C@H]3N)O[C@@H]2Cn2cc(COCCCCCCCCOCc3cn(C[C@H]4O[C@@H](O[C@@H]5[C@@H](O)[C@H](N)C[C@H](N)[C@H]5O[C@H]5O[C@H](CN)[C@@H](O)[C@H](O)[C@H]5N)[C@H](O)[C@@H]4O[C@H]4O[C@@H](CN)[C@@H](O)[C@H](O)[C@H]4N)nn3)nn2)[C@H](N)[C@@H](O)[C@@H]1O	Nucleic Acid	NOT MET
NC[C@@H]1O[C@H](O[C@H]2[C@@H](O)[C@H](O[C@@H]3[C@@H](O)[C@H](N)C[C@H](N)[C@H]3O[C@H]3O[C@H](CN)[C@@H](O)[C@H](O)[C@H]3N)O[C@@H]2Cn2cc(COCc3cn(C[C@H]4O[C@@H](O[C@@H]5[C@@H](O)[C@H](N)C[C@H](N)[C@H]5O[C@H]5O[C@H](CN)[C@@H](O)[C@H](O)[C@H]5N)[C@H](O)[C@@H]4O[C@H]4O[C@@H](CN)[C@@H](O)[C@H](O)[C@H]4N)nn3)nn2)[C@H](N)[C@@H](O)[C@@H]1O	Nucleic Acid	MET
NC[C@@H]1O[C@H](O[C@H]2[C@@H](O)[C@H](O[C@@H]3[C@@H](O)[C@H](N)C[C@H](N)[C@H]3O[C@H]3O[C@H](CN)[C@@H](O)[C@H](O)[C@H]3N)O[C@@H]2Cn2cc(CCCc3cn(C[C@H]4O[C@@H](O[C@@H]5[C@@H](O)[C@H](N)C[C@H](N)[C@H]5O[C@H]5O[C@H](CN)[C@@H](O)[C@H](O)[C@H]5N)[C@H](O)[C@@H]4O[C@H]4O[C@@H](CN)[C@@H](O)[C@H](O)[C@H]4N)nn3)nn2)[C@H](N)[C@@H](O)[C@@H]1O	Nucleic Acid	MET
NC[C@@H]1O[C@H](O[C@H]2[C@@H](O)[C@H](O[C@@H]3[C@@H](O)[C@H](N)C[C@H](N)[C@H]3O[C@H]3O[C@H](CN)[C@@H](O)[C@H](O)[C@H]3N)O[C@@H]2Cn2cc(Cc3ccc(Cc4cn(C[C@H]5O[C@@H](O[C@@H]6[C@@H](O)[C@H](N)C[C@H](N)[C@H]6O[C@H]6O[C@H](CN)[C@@H](O)[C@H](O)[C@H]6N)[C@H](O)[C@@H]5O[C@H]5O[C@@H](CN)[C@@H](O)[C@H](O)[C@H]5N)nn4)cc3)nn2)[C@H](N)[C@@H](O)[C@@H]1O	Nucleic Acid	MET
NC[C@@H]1O[C@H](O[C@H]2[C@@H](O)[C@H](O[C@@H]3[C@@H](O)[C@H](N)C[C@H](N)[C@H]3O[C@H]3O[C@H](CN)[C@@H](O)[C@H](O)[C@H]3N)O[C@@H]2CO)[C@H](N)[C@@H](O)[C@@H]1O	Nucleic Acid	NOT MET
NC[C@@H]1O[C@H](O[C@H]2[C@@H](O)[C@H](O[C@@H]3[C@@H](O)[C@H](N)C[C@H](N)[C@H]3O[C@H]3O[C@H](CN)[C@@H](O)[C@H](O)[C@H]3N)O[C@@H]2Cn2cc(CCCCCCc3cn(C[C@H]4O[C@@H](O[C@@H]5[C@@H](O)[C@H](N)C[C@H](N)[C@H]5O[C@H]5O[C@H](CN)[C@@H](O)[C@H](O)[C@H]5N)[C@H](O)[C@@H]4O[C@H]4O[C@@H](CN)[C@@H](O)[C@H](O)[C@H]4N)nn3)nn2)[C@H](N)[C@@H](O)[C@@H]1O	Nucleic Acid	NOT MET
NC[C@@H]1O[C@H](O[C@H]2[C@@H](O)[C@H](O[C@@H]3[C@@H](O)[C@H](N)C[C@H](N)[C@H]3O[C@H]3O[C@H](CN)[C@@H](O)[C@H](O)[C@H]3N)O[C@@H]2Cn2cc(COCCCCCCCCCCCCOCc3cn(C[C@H]4O[C@@H](O[C@@H]5[C@@H](O)[C@H](N)C[C@H](N)[C@H]5O[C@H]5O[C@H](CN)[C@@H](O)[C@H](O)[C@H]5N)[C@H](O)[C@@H]4O[C@H]4O[C@@H](CN)[C@@H](O)[C@H](O)[C@H]4N)nn3)nn2)[C@H](N)[C@@H](O)[C@@H]1O	Nucleic Acid	NOT MET
C/C(CCc1cn(C[C@H]2O[C@@H](O[C@@H]3[C@@H](O)[C@H](N)C[C@H](N)[C@H]3O[C@H]3O[C@H](CN)[C@@H](O)[C@H](O)[C@H]3N)[C@H](O)[C@@H]2O[C@H]2O[C@@H](CN)[C@@H](O)[C@H](O)[C@H]2N)nn1)=C(/C)CCc1cn(C[C@H]2O[C@@H](O[C@@H]3[C@@H](O)[C@H](N)C[C@H](N)[C@H]3O[C@H]3O[C@H](CN)[C@@H](O)[C@H](O)[C@H]3N)[C@H](O)[C@@H]2O[C@H]2O[C@@H](CN)[C@@H](O)[C@H](O)[C@H]2N)nn1	Nucleic Acid	NOT MET
NC[C@@H]1O[C@H](O[C@H]2[C@@H](O)[C@H](O[C@@H]3[C@@H](O)[C@H](N)C[C@H](N)[C@H]3O[C@H]3O[C@H](CN)[C@@H](O)[C@H](O)[C@H]3N)O[C@@H]2Cn2cc(Cc3cccc(Cc4cn(C[C@H]5O[C@@H](O[C@@H]6[C@@H](O)[C@H](N)C[C@H](N)[C@H]6O[C@H]6O[C@H](CN)[C@@H](O)[C@H](O)[C@H]6N)[C@H](O)[C@@H]5O[C@H]5O[C@@H](CN)[C@@H](O)[C@H](O)[C@H]5N)nn4)c3)nn2)[C@H](N)[C@@H](O)[C@@H]1O	Nucleic Acid	MET
